- test.system: Hexokinase-4 (Homo sapiens) + Glucokinase regulatory protein (Homo sapiens) (UniProt P35557+Q14397)
- Sequence (P35557 whole entry, looked up): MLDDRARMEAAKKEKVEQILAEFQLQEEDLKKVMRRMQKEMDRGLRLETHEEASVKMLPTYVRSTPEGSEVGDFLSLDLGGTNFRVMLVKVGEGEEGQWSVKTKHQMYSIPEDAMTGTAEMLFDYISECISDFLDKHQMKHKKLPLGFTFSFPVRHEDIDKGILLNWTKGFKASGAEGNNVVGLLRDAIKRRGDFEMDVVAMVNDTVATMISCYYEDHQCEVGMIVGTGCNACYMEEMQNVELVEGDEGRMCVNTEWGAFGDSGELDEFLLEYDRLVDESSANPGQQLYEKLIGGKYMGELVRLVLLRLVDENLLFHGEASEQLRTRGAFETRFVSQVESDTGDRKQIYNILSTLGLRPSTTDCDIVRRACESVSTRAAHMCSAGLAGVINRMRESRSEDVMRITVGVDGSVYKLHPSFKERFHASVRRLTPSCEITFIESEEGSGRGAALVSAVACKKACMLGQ
- Sequence (Q14397 whole entry, looked up): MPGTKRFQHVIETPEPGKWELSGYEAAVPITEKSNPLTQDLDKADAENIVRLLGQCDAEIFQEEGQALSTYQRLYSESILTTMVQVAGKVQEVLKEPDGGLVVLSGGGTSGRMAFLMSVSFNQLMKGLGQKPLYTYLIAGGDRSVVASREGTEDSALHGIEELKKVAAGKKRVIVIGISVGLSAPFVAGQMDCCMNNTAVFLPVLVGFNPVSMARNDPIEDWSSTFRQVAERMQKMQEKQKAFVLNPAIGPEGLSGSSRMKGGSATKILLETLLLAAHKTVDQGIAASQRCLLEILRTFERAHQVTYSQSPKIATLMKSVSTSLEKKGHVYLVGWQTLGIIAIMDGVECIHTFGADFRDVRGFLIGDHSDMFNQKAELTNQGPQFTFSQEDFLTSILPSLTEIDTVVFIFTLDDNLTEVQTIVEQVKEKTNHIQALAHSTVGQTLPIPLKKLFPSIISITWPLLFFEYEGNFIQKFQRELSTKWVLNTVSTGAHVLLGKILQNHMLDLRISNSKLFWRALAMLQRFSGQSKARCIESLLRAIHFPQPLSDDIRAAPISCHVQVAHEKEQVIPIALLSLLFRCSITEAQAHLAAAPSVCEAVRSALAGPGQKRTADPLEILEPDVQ
- procedure.summary: qHTS assay for inhibitors of recombinant human GCK-GKRP interaction: ADP-Glo assay (AID 743206)
- condition.context: ADP-Glo luminescence, 60 min, 0% = vehicle-only wells with enzyme present; series mostly up to 76.9 µM
The source made the active and inactive calls. Calls follow the shape of the dose curve; as a rule, active = well fitted curve in the direction sought with a large enough effect; inconclusive = small, poorly fitted or top-dose-only effect, or another doubt; inactive = no such curve, though single readings can be large or run the other way.
outcome.measure: outcome

• NC(CCP(=O)(O)O)C(=O)O (stereo not drawn) = inactive
• NC(=NCCC[C@H](N)C(=O)O)N[N+](=O)[O-] = inactive
• CC(=O)NCCc1c[nH]c2ccccc12 = inactive

---

- Test system: ECU
- procedure.summary: qHTS profiling for inhibitors of Plasmodium falciparum proliferation (AID 504749); also: nearly all actives have a fitted effect of over 60% in size
- condition.context: P. falciparum in erythrocytes, SYBR Green DNA, 72 h; series mostly up to 28.7 µM
Records with an inconclusive call do not appear. Activity calls are given as the source filed them. Calls follow the shape of the dose curve; as a rule, active = well fitted inhibition curve with a large enough effect; inconclusive = small, poorly fitted or top-dose-only effect; inactive = flat fitted curve, though single readings scatter.
Possible outcomes: Y for active, N for inactive

• CCCCc1ccc(C(=O)O)nc1 = N
• CC(=O)OCC1=C(C(=O)O)N2C(=O)[C@@H](N)[C@@H]2SC1 = N
• C[C@]12CCC(=O)C(O)=C1CC[C@@H]1[C@H]3CCC(=O)[C@@]3(C)CC[C@@H]12 = N
• Cc1cc(O)ccc1Cl = N
• CCCCCCCCCC(CC)c1ccc(S(=O)(=O)O)cc1 (configuration not stated) = N
• COC(=O)[C@@H](N)CCCN=C(N)N[N+](=O)[O-] = N
• C#CC1(O)CCC2C3CCC4=CC(=O)CCC4(C)C3CCC21C (configuration not stated) = N
• O=C(O)C(Cl)Cl = N
• CN(C)[C@@H]1C(=O)C(C(N)=O)=C(O)[C@@]2(O)C(=O)C3=C(O)c4c(O)cccc4[C@@](C)(O)[C@H]3[C@H](O)[C@@H]12 = N
• CC(=O)[O][Hg][c]1ccccc1 = Y
• C=CCN1CC[C@]23CCCCC2[C@H]1Cc1ccc(O)cc13 (some centres not stated) = N
• O=C(O)COc1ccccc1 = N

---

- procedure.summary: qHTS of pediatric cancer cell lines to identify multiple opportunities for drug repurposing: Primary screen for RD cells (AID 1347104); also: nearly all actives have a fitted effect of over 55% in size
- condition.context: RD rhabdomyosarcoma viability, CellTiter-Glo luminescence, 48 h; series mostly up to 46 µM
Inconclusive results are not listed. Active and inactive are the calls of the source. Calls follow the shape of the dose curve; as a rule, active = well fitted cell-killing curve with a large enough effect; inconclusive = small, poorly fitted or top-dose-only effect; inactive = flat fitted curve, though single readings scatter.
Possible outcomes: active, inactive

• O=C(O)COc1ccccc1 = inactive
• C[C@@H]1[C@H](O)[C@@H](C)C=CC=CCCC=CC=CC=CC=C[C@H](O[C@H]2O[C@@H](C)[C@H](O)[C@@H](N)[C@@H]2O)CC2O[C@](O)(C[C@@H](O)[C@H](O)CC[C@@H](O)C[C@@H](O)C[C@@H](O)CC(=O)O[C@H]1C)C[C@H](O)[C@H]2C(=O)O = inactive
• CCCCCCCCc1ccc(O)cc1 = inactive
• N#C[C@H](O[C@@H]1O[C@H](CO[C@@H]2O[C@H](CO)[C@H](O)[C@H](O)[C@H]2O)[C@H](O)[C@H](O)[C@H]1O)c1ccccc1 = active
• Cc1nc(-c2ccc(-c3ccc(C(=O)N4CCc5cc6c(cc54)C4(CCN(C)CC4)CO6)cc3)c(C)c2)no1 = inactive
• CC(C)(O)C(=O)Nc1ccc([N+](=O)[O-])c(C(F)(F)F)c1 = active
• CCc1c(C(=O)C(N)=O)c2c(OCC(=O)O)cccc2n1Cc1ccccc1 = inactive
• C[C@@H]1O[C@@H](O[C@@H]2C=C3CC[C@@H]4[C@@H](CC[C@]5(C)[C@H](c6ccc(=O)oc6)CC[C@@]45O)[C@@]3(C)CC2)[C@H](O)[C@H](O)[C@H]1O = active
• CC(C)(C)NC[C@H](O)c1ccc(O)cc1Cl = inactive
• CC1(N2CCC(n3c([C@@H]4CCCNC4)nc4ccccc43)CC2)CCCCCCC1 = active
• Cc1ccccc1-n1c(Cn2cnc3c(N)ncnc32)nc2cccc(C)c2c1=O = active
• C[C@H]1CCCC=CC2C[C@H](O)C[C@@H]2[C@H](O)C=CC(=O)O1 (stereo partly drawn) = active
• CSCC[C@@H](NC(=O)[C@@H](Cc1ccccc1)NC(=O)CNC(=O)CNC(=O)[C@@H](N)Cc1ccc(O)cc1)C(=O)O = inactive
• CC(O)=C(C#N)C(=O)Nc1cc(Br)ccc1Br = inactive
• CC(Cc1ccc(O)cc1)NCC(O)c1cc(O)cc(O)c1 (stereo not drawn) = inactive
• COc1ccc2c(c[n+](C)c3c4cc5c(cc4ccc23)OCO5)c1OC = active
• C[C@@]12OC(=O)[C@]1([C@@H](O)[C@@H]1C=CCCC1)NC(=O)[C@H]2CCCl = active
• CC(=O)N(C)c1cccc(-c2ccnc3c(C(=O)c4cccs4)cnn23)c1 = inactive

---

- test.system: Flap endonuclease 1 (Homo sapiens) (UniProt P39748)
- Sequence (P39748 whole entry, looked up): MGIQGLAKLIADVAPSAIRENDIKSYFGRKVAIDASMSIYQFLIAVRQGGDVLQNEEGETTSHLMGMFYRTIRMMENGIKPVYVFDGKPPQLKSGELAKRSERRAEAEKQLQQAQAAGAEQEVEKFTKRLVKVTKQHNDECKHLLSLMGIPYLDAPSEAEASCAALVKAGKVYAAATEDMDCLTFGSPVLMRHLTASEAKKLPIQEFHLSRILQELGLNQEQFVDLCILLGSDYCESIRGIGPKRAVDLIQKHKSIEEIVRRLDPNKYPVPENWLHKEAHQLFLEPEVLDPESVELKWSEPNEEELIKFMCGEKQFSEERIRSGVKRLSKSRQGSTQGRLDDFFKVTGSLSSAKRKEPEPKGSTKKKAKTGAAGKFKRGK
- procedure.summary: qHTS Validation Assay for the Inhibitors of Human Flap endonuclease 1 (FEN1) (AID 488816)
- condition.context: FEN1 nuclease activity, fluorogenic DNA substrate; series mostly up to 57.1 µM
Calls of active or inactive are those of the source. Calls follow the shape of the dose curve; as a rule, active = well fitted inhibition curve with a large enough effect; inconclusive = small, poorly fitted or top-dose-only effect; inactive = flat fitted curve, though single readings scatter.
outcome.measure: outcome

- C/C=C(/C)C(=O)O[C@H]1C(C)=C2[C@H]([C@@H]1OC(=O)CCCCCCC)[C@@](C)(OC(C)=O)C[C@H](OC(=O)CCC)[C@@]1(O)[C@H]2OC(=O)[C@@]1(C)O: inactive
- C[N+]1(C)C2CCC1CC(OC(=O)C(CO)c1ccccc1)C2 (stereo unspecified): inactive
- c1ccc2sc(C3(N4CCCCC4)CCCCC3)cc2c1: inactive
- NC(CP(=O)(O)O)C(=O)O (stereo unspecified): inactive
- NCc1cc(=O)[nH]o1: inactive
- COc1cc(C(O)CN)ccc1O (stereo unspecified): inactive
- C[C@@H]1O[C@H](C[N+](C)(C)C)C[C@H]1O: inactive
- COC(=O)[C@@H](N)CCCN=C(N)N[N+](=O)[O-]: inactive
- C[C@]12N[C@H](Cc3ccccc31)c1ccccc12: inactive
- C#CCOC(=O)C1=CCCN(C)C1: inactive
- CC(=O)NCCc1c[nH]c2ccccc12: inactive

---

- procedure.summary: qHTS profiling of the MIPE4 collection as inhibitors of Plasmodium falciparum (DD2) proliferation (Rep 2) (AID 743346)
- condition.context: P. falciparum Dd2 in erythrocytes, SYBR Green DNA, 72 h; at 28.5 µM (top of the series)
fulfilled if parasite growth, % of control (lower = inhibition) is below 90%. not fulfilled if not; exact matches included in not fulfilled.

- C[C@H]([C@H](O)CCC(C)(C)O)[C@H]1CC[C@@]2(O)C3=CC(=O)[C@@H]4C[C@@H](O)[C@@H](O)C[C@]4(C)[C@@H]3CC[C@]12C: not fulfilled
- COc1ccc(C(=O)c2c(C)n(CCN3CCOCC3)c3cc(I)ccc23)cc1: fulfilled
- COc1ccc2c(c[n+](C)c3c4cc5c(cc4ccc23)OCO5)c1OC: not fulfilled
- N#C[C@H](O[C@@H]1O[C@H](CO[C@@H]2O[C@H](CO)[C@H](O)[C@H](O)[C@H]2O)[C@H](O)[C@H](O)[C@H]1O)c1ccccc1: fulfilled
- COC(=O)[C@@H](N)CCCN=C(N)N[N+](=O)[O-]: fulfilled
- CCN1CCN(C(=O)Cc2ccc(Nc3ncc(F)c(Nc4ccc(C(=O)Nc5ccccc5Cl)cc4)n3)cc2)CC1: fulfilled
- C[C@]12CC[C@H](O)CC1=CC[C@H]1[C@H]3CCC(=O)[C@@]3(C)CC[C@@H]12: not fulfilled
- C[C@]12CC[C@H]3[C@@H](CCC4=CC(=O)CC[C@@]43C)[C@H]1CC[C@H]2O: not fulfilled
- c1ccc2c(CN3CCNCC3)cccc2c1: fulfilled
- CCNC(=O)CC1N=C(c2ccc(Cl)cc2)c2cc(OC)ccc2-n2c(C)nnc21 (stereo not drawn): fulfilled
- C[C@@H]1CC[C@H]2[C@@H](C)C(=O)O[C@@H]3O[C@@]4(C)CC[C@H]1[C@]32OO4: fulfilled
- O=C1C=CC[C@@H]2[C@H]3CCCN4CCC[C@@H](CN12)[C@@H]34: fulfilled
- COc1ccc2c(c1)[C@]13CCCCC1C(C2)N(C)CC3 (stereo partly drawn): fulfilled
- Cc1c(C(=O)c2cccc3ccccc23)c2cccc3c2n1[C@H](CN1CCOCC1)CO3: fulfilled
- CN1CCN(c2ccc([N+](=O)[O-])c3no[n+]([O-])c23)CC1: fulfilled
- C[C@]12COC(=O)C[C@@H]1CC[C@@H]1[C@H]2CC[C@@]2(C)[C@H]1CC[C@]2(C)O: not fulfilled

---

- procedure.summary: P-glycoprotein substrates identified in KB-8-5-11 adenocarcinoma cell line, qHTS therapeutic library screen (AID 1346987); also: nearly all actives have a fitted effect of over 65% in size
- condition.context: KB-8-5-11 (P-gp overexpressing) viability, CellTiter-Glo, 72 h; series mostly up to 44.5 µM
Inconclusive results are not listed. Active and inactive are the calls of the source. Calls follow the shape of the dose curve; as a rule, active = well fitted inhibition curve with a large enough effect; inconclusive = small, poorly fitted or top-dose-only effect; inactive = flat fitted curve, though single readings scatter.
Possible outcomes: active, inactive

* C[C@]12CC[C@H]3[C@@H](CCC4=CC(=O)CC[C@@]43C)[C@H]1CC[C@H]2OC(=O)CCC1CCCC1 | inactive
* C[C@H]1CCCC=CC2C[C@H](O)C[C@@H]2[C@H](O)C=CC(=O)O1 (stereo partly specified) | active
* CC(C)N[C@@H]1CCn2c(=O)[nH]c3cccc(c32)[C@@H]1O | inactive
* CN[C@@H](C)[C@H](O)c1ccccc1 | inactive
* C1CCC(NC2CCCCC2)CC1 | inactive
* CCCN1CCC[C@H](c2cccc(O)c2)C1 | inactive
